Value source: PubChem BioAssay (NCI)

test system: 786-0 renal; assay: NCI-60 one-dose screen, 48 h; conditions: 10 µM
Compounds without any hit were thinned out: in the full panel of roughly 83,000, 20% have a hit. Activity calls are given as the source filed them. The calls were made as follows: active = growth percent below 10; inactive = the rest.
Pick one and only one: active, inactive

// known answers, use as guide
> print(dat)
                                   compound       system  assigned.label
1  O=S(=O)(Nc1ncccn1)c1ccc(-n2c(-c3ccccc3)nc(-c3ccccc3)c2-c2ccccc2)cc1  786-0 renal        inactive
2  Cc1ccc(-c2ccc(SCC(=O)Nc3ccc(Cl)c(C(F)(F)F)c3)nn2)cc1  786-0 renal        inactive
3  O=[N+]([O-])c1ccc(-c2nc(-c3ccccc3)c(-c3ccccc3)n2-c2ccc(S(=O)(=O)Nc3ncccn3)cc2)cc1  786-0 renal        inactive

Then there is this compound:
I would be grateful if you could indicate the recorded call for COc1ccc([C@H]2C(C(=O)c3ccc(Cl)cc3)C3(N[C@@H]2c2ccccc2)C(=O)Nc2ccc(Cl)cc23)cc1 (some centres undefined) .
active
